system: SK-LU-1; assay: relative viability (nuclei count vs DMSO), 5 days (fraction); higher = more cells survive; details: first compound 0.02 µM
measured.property: relative viability

1. CC(=O)O[C@@]12CO[C@@H]1C[C@H](O)[C@@]1(C)C(=O)[C@H](O)C3=C(C)[C@@H](OC(=O)[C@H](O)[C@@H](NC(=O)OC(C)(C)C)c4ccccc4)C[C@@](O)([C@@H](OC(=O)c4ccccc4)[C@H]21)C3(C)C [Docetaxel] + COc1cccc2cc(-c3nc([C@H]4CC[C@H](C(=O)O)CC4)n4ncnc(N)c34)[nH]c12 [OSI-027] (partner 0.5 µM)	0.144
2. CC(=O)O[C@@]12CO[C@@H]1C[C@H](O)[C@@]1(C)C(=O)[C@H](O)C3=C(C)[C@@H](OC(=O)[C@H](O)[C@@H](NC(=O)OC(C)(C)C)c4ccccc4)C[C@@](O)([C@@H](OC(=O)c4ccccc4)[C@H]21)C3(C)C [Docetaxel] + CS(=O)(=O)N1CCN(Cc2cc3nc(-c4cccc5[nH]ncc45)nc(N4CCOCC4)c3s2)CC1 [Pictilisib] (partner 1 µM)	0.171
3. CC(=O)O[C@@]12CO[C@@H]1C[C@H](O)[C@@]1(C)C(=O)[C@H](O)C3=C(C)[C@@H](OC(=O)[C@H](O)[C@@H](NC(=O)OC(C)(C)C)c4ccccc4)C[C@@](O)([C@@H](OC(=O)c4ccccc4)[C@H]21)C3(C)C [Docetaxel] + CC(=O)Nc1cccc(-n2c(=O)n(C3CC3)c(=O)c3c(Nc4ccc(I)cc4F)n(C)c(=O)c(C)c32)c1 [Trametinib] (partner 0.02 µM)	0.223
